Experiment: TOX21_p53_BLA_p2_viability: Viability Assessment in the Tox21 HCT-116 p53 Agonism Beta-lactamase Assay, Phase 2 (AID 2283591);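 further: compound exposure lasted 16 h at 37 °C; actives lower the ATP signal meaning cytotoxicity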
Description: TOX21_p53_BLA_p2 is a cell-based, single-readout assay that uses HCT116, a human intestinal cell line, […] in a 1536-well plate.TOX21_p53_BLA_p2_viability is an assay readout measuring cellular ATP content and detected with CellTiter-Glo Luciferase-coupled ATP quantitation.TOX21_p53_BLA_p2_viability used a type of viability reporter where loss-of-signal activity can be used to understand changes in the cell viability. […]
Results filed as inconclusive are left out. Active and inactive are the calls of the source. How the source made its calls: active means hit-call score of the fitted dose curve at least 0.9, where 1 is the maximum; inconclusive means response in the unintended direction; inactive means score below 0.9.
Would you mind answering with one of these outcomes? class 1 for active, class 0 for inactive

Consider the following illustrative entries.
>>> group_label("Cc1ccc(-c2c(Cl)nc(C#N)n2S(=O)(=O)N(C)C)cc1")
"class 1"
>>> group_label("CC(C)Oc1cc(-n2nc(C(C)(C)C)oc2=O)c(Cl)cc1Cl")
"class 0"
>>> group_label("CCOC(=O)CC(SP(=S)(OC)OC)C(=O)OCC (stereo unspecified)")
"class 0"
>>> group_label("COC(=O)N(OC)c1ccccc1COc1ccn(-c2ccc(Cl)cc2)n1")
"class 0"
>>> group_label("OC(c1ccc(Cl)cc1)(c1cncnc1)c1ccccc1Cl (stereo unspecified)")
"class 0"

Record lookup: outcome of this test for "COc1cnc(OC)n2nc(NS(=O)(=O)c3c(OCC(F)F)cccc3C(F)(F)F)nc12" ?
class 0

Then this molecule: "C=CCC1=C(C)[C@@H](OC(=O)[C@@H]2[C@@H](C=C(C)C)C2(C)C)CC1=O"
class 0

# iterate: CC1COC(Cn2cncn2)(c2ccc(Oc3ccc(Cl)cc3)cc2Cl)O1 (stereo unspecified)
class 1

How about "CCCCNC(=O)n1c(NC(=O)OC)nc2ccccc21" ?
class 0

Then this molecule: "CCc1nn(C)c(C(=O)NCc2ccc(C(C)(C)C)cc2)c1Cl"
class 1

Let us now turn to CCCCC(CC)COC(=O)c1ccccc1C(=O)OCC(CC)CCCC (stereo unspecified)
class 0
